Target: CETP (cholesteryl ester transfer protein) (Homo sapiens)
Sequence (P11597 18-493, species assumed): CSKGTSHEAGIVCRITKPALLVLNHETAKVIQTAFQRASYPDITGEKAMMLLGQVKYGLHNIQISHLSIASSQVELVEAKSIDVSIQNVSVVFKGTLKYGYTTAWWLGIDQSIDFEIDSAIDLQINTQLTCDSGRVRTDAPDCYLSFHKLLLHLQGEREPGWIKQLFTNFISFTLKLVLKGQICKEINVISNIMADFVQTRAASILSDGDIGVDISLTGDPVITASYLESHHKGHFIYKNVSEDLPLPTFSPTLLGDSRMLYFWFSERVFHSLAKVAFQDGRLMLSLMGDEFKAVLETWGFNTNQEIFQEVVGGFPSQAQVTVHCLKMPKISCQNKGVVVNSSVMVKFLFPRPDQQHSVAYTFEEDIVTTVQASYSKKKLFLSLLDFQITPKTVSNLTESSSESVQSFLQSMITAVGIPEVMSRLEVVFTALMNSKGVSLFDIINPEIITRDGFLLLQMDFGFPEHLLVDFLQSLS
Experiment: In vitro screening test: inhibitory effect on the activity of CETP (3H-cholesterol ester transfer from HDL to biotinylated LDL, SPA)
Assay type: biochemical
Settings: incubation 24 hours at 37° C., relative to control (CETP+solvent)
measured property: pIC50
Value format note: pIC50 is -log10 of concentration (mol/L); just state the number.

Please tell me: pIC50 of Nc1cc(C(F)(F)F)cc(C(=O)Nc2ccc(Cl)c(Cl)c2)c1N1CCCCC1 [Example 2] , system CETP (cholesteryl ester transfer protein) (Homo sapiens)?
6.03
